All values here come from patent US20240199546A1.

- TEST TARGET: human SLC6A19 and TMEM27 (Homo sapiens)
- Construct: expressed in transfected cells
- Sequence (Q695T7 whole entry): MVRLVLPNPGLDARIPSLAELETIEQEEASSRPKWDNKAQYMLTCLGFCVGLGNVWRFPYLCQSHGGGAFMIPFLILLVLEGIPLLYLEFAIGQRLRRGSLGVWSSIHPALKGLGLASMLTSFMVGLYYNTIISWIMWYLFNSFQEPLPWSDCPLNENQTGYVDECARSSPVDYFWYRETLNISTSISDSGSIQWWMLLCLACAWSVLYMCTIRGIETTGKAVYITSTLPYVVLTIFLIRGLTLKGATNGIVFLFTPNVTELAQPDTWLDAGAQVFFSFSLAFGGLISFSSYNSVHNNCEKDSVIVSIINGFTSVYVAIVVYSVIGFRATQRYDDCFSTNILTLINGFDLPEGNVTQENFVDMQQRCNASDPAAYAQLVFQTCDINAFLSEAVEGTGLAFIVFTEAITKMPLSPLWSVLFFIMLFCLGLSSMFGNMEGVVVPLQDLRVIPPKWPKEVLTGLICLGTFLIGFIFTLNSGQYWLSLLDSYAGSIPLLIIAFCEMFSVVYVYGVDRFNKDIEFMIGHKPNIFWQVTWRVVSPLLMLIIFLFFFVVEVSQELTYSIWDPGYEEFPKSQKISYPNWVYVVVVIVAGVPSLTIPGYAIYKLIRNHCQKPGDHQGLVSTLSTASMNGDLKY
- Sequence (Q9HBJ8 15-222 partner): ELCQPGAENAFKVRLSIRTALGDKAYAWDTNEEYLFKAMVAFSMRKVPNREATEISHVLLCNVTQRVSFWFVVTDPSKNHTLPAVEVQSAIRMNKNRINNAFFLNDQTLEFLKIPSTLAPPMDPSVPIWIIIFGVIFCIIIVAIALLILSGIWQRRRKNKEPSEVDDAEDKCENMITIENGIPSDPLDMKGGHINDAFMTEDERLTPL
- TEST DESCRIPTION: Radiolabelled (3H) leucine uptake in CHO cells with doxycycline-inducible expression of human SLC6A19 and TMEM27 (Example B-1)
- Type: cell-based
- SETUP CONDITIONS: CHO cells with doxycycline-inducible expression of human SLC6A19 and TMEM27, read-out: SLC6A19_Radioligand Uptake Assay IC50
MEASURED METRIC: pIC50
Numbers only, as −log10 of the molar value.

COMPOUND	pIC50
O=C(NCc1cc2cc(Cl)c(OCc3cscn3)cc2[nH]1)C1(C(F)(F)F)CC1	6.92

Items follow; give pIC50 for each.
1. CC(F)C(=O)NCc1cc2cc(Cl)c(OCc3cscn3)cc2[nH]1 (single isomer, unassigned) [Compound 444]
2. Cc1cc(COc2cc3[nH]c(CNC(=O)N4CCCC4)cc3cc2Cl)on1

Found:
1: 7.11; 2: 7.00
